assay: Wnt pathway potentiators raising nuclear beta-catenin – imaging, WNT3A-conditioned medium, mouse C2C12, NPC library, primary screen (AID 1117326); conditions: at 10 µM, stronger effect = higher value; also: reference of the scale not given here
Would you mind telling me the reported nuclear beta-catenin stimulation of each entry?
Answers are plain numbers, in %.

Past entries and their recorded results:
[[record]]
compound = "CCC(=O)O[C@H]1[C@H](O[C@@H]2[C@@H](C)[C@H](O[C@H]3C[C@@](C)(OC)[C@@H](O)[C@H](C)O3)[C@@H](C)C(=O)O[C@H](CC)[C@@](C)(O)[C@H](O)[C@@H](C)C(=O)[C@H](C)C[C@@]2(C)O)O[C@H](C)C[C@@H]1N(C)C"
endpoint_name = "nuclear beta-catenin stimulation"
reading = 0.6

[[record]]
compound = "CCCCN(CCCC)CCC(O)c1cc2c(Cl)cc(Cl)cc2c2cc(C(F)(F)F)ccc12 (stereo not drawn)"
endpoint_name = "nuclear beta-catenin stimulation"
reading = 5.2


Next item in the queue.
// `COCCCOc1cc(C[C@@H](C[C@H](N)[C@@H](O)C[C@H](C(=O)NCC(C)(C)C(N)=O)C(C)C)C(C)C)ccc1OC` : nuclear beta-catenin stimulation value = -0.6

---

assay: viability loss with induced miR-34 in A549 – imaging, A549 dox-inducible miR-34, nuclei and caspase counts, primary screen (AID 1347080); settings: A549 miR-34 inducible, Hoechst nuclei count, 48 h; measured here: total cells with miR-34 induction; stronger effect = lower value
ENDPOINT_NAME: cell count

Past entries and their recorded results:
[[record]]
molecule = "O=C(OCC(O)CO)c1ccccc1Nc1ccnc2cc(Cl)ccc12 (stereo not given)"
reading = 8940

[[record]]
molecule = "CC(C)c1ccc2oc3nc(N)c(C(=O)O)cc3c(=O)c2c1"
reading = 9060

[[record]]
molecule = "O=C(O)CCCC[C@@H]1SC[C@@H]2NC(=O)N[C@@H]21"
reading = 8760

[[record]]
molecule = "C=Cc1c(C)c2cc3[nH]c(cc4nc(cc5nc(cc1[nH]2)C(C)=C5CCC(=O)O)C(CCC(=O)O)=C4C)c(C)c3C=C"
reading = 9230


Next item in the queue.
// `O=c1cc(CO)occ1O` : cell count value = 9020

---

test: inhibition of endothelial tube formation, primary screen, imaging, VEGF stimulated, CD31 staining, tube area, NPC library (AID 1117340); settings: VEGF-stimulated ADSC/ECFC co-culture, at 10 µM, stronger effect = higher value
ENDPOINT_NAME: tube area decrease (%)
Answers are plain numbers, in %.

Past entries and their recorded results:
[[record]]
compound = "NC/C=C/C(=O)O"
endpoint_name = "tube area decrease"
reading = -0.5

[[record]]
compound = "O=C1O[C@H](CO)[C@@H](O)[C@H](O)[C@H]1O"
endpoint_name = "tube area decrease"
reading = -3.8

[[record]]
compound = "O=C(O)CCCCC1CCSS1 (stereo not given)"
endpoint_name = "tube area decrease"
reading = 10.9

[[record]]
compound = "CNC[C@H](O)c1cccc(O)c1"
endpoint_name = "tube area decrease"
reading = -2.9

[[record]]
compound = "C1CCC(C(CC2CCCCN2)C2CCCCC2)CC1 (stereo not given)"
endpoint_name = "tube area decrease"
reading = 9.8

[[record]]
compound = "CCc1c(C)[nH]c2c1C(=O)C(CN1CCOCC1)CC2 (stereo not given)"
endpoint_name = "tube area decrease"
reading = -10.5

[[record]]
compound = "COc1cc(NS(=O)(=O)c2ccc(N)cc2)nc(OC)n1"
endpoint_name = "tube area decrease"
reading = 0.8

[[record]]
compound = "OC[C@H]1O[C@@H](Oc2ccc(O)cc2)[C@H](O)[C@@H](O)[C@@H]1O"
endpoint_name = "tube area decrease"
reading = 1


Each compound below has a reported value. Please supply its tube area decrease.
1. CCn1cc(C(=O)O)c(=O)c2cnc(N3CCNCC3)nc21
2. CO[C@@H]1[C@@H](OC(N)=O)[C@@H](O)[C@H](Oc2ccc3c(O)c(NC(=O)c4ccc(O)c(CC=C(C)C)c4)c(=O)oc3c2C)OC1(C)C

Result:
[0.7, -1.9]
